molecular target: T1, human CD4, cell-expressed (human, UniProt P01730 26-458); assay: flow cytometry on activated T cells of donor D838 (very high CD4), lower left panel
T1 construct: whole, on cells
Quantity measured: EC50 (read off the curve)

get_value(item= CD4#8-35GS-IL23R#19 (bispecific antibody, also called BI#45; T023200045) EVQLVESGGGSVQPGGSLTLSCGTSGRTFNVMGWFRQAPGKEREFVAAVRWSSTGIYYTQYADSVKSRFTISRDNAKNTVYLEMNSLKPEDTAVYYCAADTYNSNPARWDGYDFRGQGTLVTVSSGGGGSGGGGSGGGGSGGGGSGGGGSGGGGSGGGGSEVQLVESGGGLVQPGGSLTLSCVASGRTFSTDVMGWFRQAPGKEREFVAAHRTSGISTVYAASVKGRFTISRDNAKNTVYLGMKSLKPEDTAVYVCAAGSDASGGYDYWGQGTLVTVSS , readout=EC50 (read off the curve)) returns ~1 nM
